// values below are reported viability at 24 h, 10 µM
Assay: MTT cell viability assay in BV2 microglia cells
Assay type: cell-based
Conditions: mouse, 10 µM, mean ± SD, n = 3
Number first, unit second: that is the form wanted.

- substanceSmiles: "O=C(/C=C/CCc1ccccc1)/C=C/c1ccc(Cl)cc1"
  outcomeMeasure: "viability at 24 h, 10 µM"
  recordedValue: "48.7%"
- substanceSmiles: "COc1cc(/C=C/C(=O)/C=C/CCc2ccccc2)cc(OC)c1OC"
  outcomeMeasure: "viability at 24 h, 10 µM"
  recordedValue: "16.6%"
- substanceSmiles: "COc1cc(/C=C/C(=O)/C=C/CCc2ccccc2)ccc1O"
  outcomeMeasure: "viability at 24 h, 10 µM"
  recordedValue: "14.8%"
- substanceSmiles: "COc1ccc(/C=C/C(=O)/C=C/CCc2ccc(OC)c(OC)c2)cc1OC"
  outcomeMeasure: "viability at 24 h, 10 µM"
  recordedValue: "10.6%"
- substanceSmiles: "Cc1ccc(/C=C/C(=O)/C=C/CCc2ccccc2)cc1"
  outcomeMeasure: "viability at 24 h, 10 µM"
  recordedValue: "33.3%"

Now let's try a different one.
Query: Record request: viability at 24 h, 10 µM value, item O=C(/C=C/CCc1cccc(O)c1)/C=C/c1ccccc1
Reply: 23.2%

---

Assay: MTT cell viability assay in BV2 microglia cells
Type: cell-based
Settings: mouse, 10 µM, mean ± SD, n = 3
// values below are reported viability at 24 h, 10 µM
Expressed in %, but write only the number.

Here are 2 molecules together with their reported answers.
- molecule: "O=C(/C=C/CCc1ccc(Cl)cc1)/C=C/c1ccccc1 [CU-28]"
  unitInfo: "%"
  recordedValue: 81.7
- molecule: "Cc1ccc(CC/C=C/C(=O)/C=C/c2ccccc2)cc1 [CU-22]"
  unitInfo: "%"
  recordedValue: 46.6

Now let's try a different one.
Query: Record request: viability at 24 h, 10 µM value, item COc1cc(CC/C=C/C(=O)/C=C/c2ccccc2)ccc1O [CU-26]
Reply: 12.8

---

Assay: In vivo pharmacokinetic study in rats
Set-up: species or system Sprague–Dawley male rats
Conditions: male, Sprague-Dawley; rat plasma, single intravenous dose 20 mg/kg; mean ± SD, n = 4
outcomeMeasure: Cmax (ng/mL)
Expressed in ng/mL, but write only the number.

- molecule: "COc1ccc(CC/C=C/C(=O)/C=C/c2ccccc2)cc1"
  unitInfo: "ng/mL"
  Cmax: 6850
- molecule: "COc1ccc(/C=C/C(=O)/C=C/CCc2ccccc2)cc1OC"
  unitInfo: "ng/mL"
  Cmax: 3330

Now let's try a different one.
Query: Record request: Cmax value, item COc1cc(/C=C/C(=O)CC(=O)/C=C/c2ccc(O)c(OC)c2)ccc1O [CU, curcumin, reference compound]
Reply: 2450

---

Test: MTT cell viability assay in BV2 microglia cells
Type: cell-based
Settings: mouse, 3 µM, mean ± SD, n = 3
Method: The BV2 microglial cells were purchased from the China Center for Type Culture Collection, CCTCC (Wuhan, Hubei). BV2 microglia cells were incubated in DMEM media supplemented with 10% (v/v) FBS, 100 U/mL penicillin G and […] streptomycin at 37 °C with 5% CO2. Cell viability assays were evaluated using a 3-(4,5-dimethylthiazol-2-yl)-2,5-diphenyltetrazolium bromide (MTT) assay. […] The optical density (A) was measured at […] on a microplate reader. […]
outcomeMeasure: viability at 24 h, 3 µM (%)
Expressed in %, but write only the number.

- compound: "O=C(/C=C/CCc1ccccc1)/C=C/c1ccccc1O"
  viability at 24 h, 3 µM, %: 77.4
- compound: "Cc1ccc(CC/C=C/C(=O)/C=C/c2ccc(O)cc2)cc1"
  viability at 24 h, 3 µM, %: 91.6
- compound: "COc1ccc(/C=C/C(=O)/C=C/CCc2ccccc2)cc1"
  viability at 24 h, 3 µM, %: 102
- compound: "O=C(/C=C/CCc1cccc(O)c1)/C=C/c1ccccc1"
  viability at 24 h, 3 µM, %: 91.5
- compound: "O=C(/C=C/CCc1ccccc1)/C=C/c1ccc(Cl)cc1"
  viability at 24 h, 3 µM, %: 95.3
- compound: "COc1ccc(/C=C/C(=O)/C=C/CCc2ccccc2)cc1O"
  viability at 24 h, 3 µM, %: 97.4
- compound: "O=C(/C=C/CCc1ccccc1)/C=C/c1cccc(O)c1"
  viability at 24 h, 3 µM, %: 100
- compound: "COc1cc(/C=C/C(=O)CC(=O)/C=C/c2ccc(O)c(OC)c2)ccc1O [CU, curcumin, reference compound]"
  viability at 24 h, 3 µM, %: 95.3
- compound: "COc1cc(/C=C/C(=O)/C=C/CCc2ccc(O)c(OC)c2)ccc1O"
  viability at 24 h, 3 µM, %: 51.8
- compound: "COc1cc(CC/C=C/C(=O)/C=C/c2ccccc2)ccc1O"
  viability at 24 h, 3 µM, %: 96.8

Now let's try a different one.
Query: Record request: viability at 24 h, 3 µM value, item COc1ccc(CC/C=C/C(=O)/C=C/c2ccccc2)cc1OC
Reply: 101

---

Test: MTT cell viability assay in BV2 microglia cells
Assay type: cell-based
Settings: mouse, 10 µM, mean ± SD, n = 3
outcomeMeasure: viability at 24 h, 10 µM
Number first, unit second: that is the form wanted.

- compound: "COc1ccc(CC/C=C/C(=O)/C=C/c2ccc(O)cc2)cc1"
  outcomeMeasure: "viability at 24 h, 10 µM"
  recordedValue: "28.5%"

Query: Record request: viability at 24 h, 10 µM value, item COc1ccc(/C=C/C(=O)/C=C/CCc2ccccc2)cc1
Reply: 98.5%

Query: Record request: viability at 24 h, 10 µM value, item COc1ccc(CC/C=C/C(=O)/C=C/c2ccccc2)cc1OC
Reply: 12.3%

Query: Record request: viability at 24 h, 10 µM value, item COc1cc(/C=C/C(=O)/C=C/CCc2ccc(O)c(OC)c2)ccc1O
Reply: 12.2%

Query: Record request: viability at 24 h, 10 µM value, item COc1cc(/C=C/C(=O)CC(=O)/C=C/c2ccc(O)c(OC)c2)ccc1O [CU, curcumin, reference compound]
Reply: 28.1%

---

Assay: MTT cell viability assay in BV2 microglia cells
Type: cell-based
Settings: mouse, 1 µM, mean ± SD, n = 3
// values below are reported viability at 24 h, 1 µM
Expressed in %, but write only the number.

Here are 3 compounds together with their reported answers.
- substanceSmiles: "O=C(/C=C/CCc1ccccc1)/C=C/c1ccccc1"
  unitInfo: "%"
  recordedValue: 105
- substanceSmiles: "O=C(/C=C/CCc1ccccc1)/C=C/c1cccc(O)c1"
  unitInfo: "%"
  recordedValue: 107
- substanceSmiles: "COc1cc(CC/C=C/C(=O)/C=C/c2ccccc2)cc(OC)c1OC"
  unitInfo: "%"
  recordedValue: 116

Query: Record request: viability at 24 h, 1 µM value, item O=C(/C=C/CCc1ccc(O)cc1)/C=C/c1ccccc1
Reply: 129

Query: Record request: viability at 24 h, 1 µM value, item O=C(/C=C/CCc1ccccc1)/C=C/c1ccc(Cl)cc1
Reply: 95.5

Query: Record request: viability at 24 h, 1 µM value, item COc1cc(CC/C=C/C(=O)/C=C/c2ccc(O)cc2)ccc1O
Reply: 92

Query: Record request: viability at 24 h, 1 µM value, item COc1ccc(/C=C/C(=O)/C=C/CCc2ccccc2)cc1OC
Reply: 96.9

Query: Record request: viability at 24 h, 1 µM value, item COc1ccc(/C=C/C(=O)/C=C/CCc2ccc(OC)c(OC)c2)cc1OC
Reply: 76.9

---

Assay: In vivo pharmacokinetic study in rats
Design: species or system Sprague–Dawley male rats
Conditions: male, Sprague-Dawley; rat plasma, single intravenous dose 20 mg/kg; mean ± SD, n = 4
Protocol: After a single intravenous dose of 20 mg/kg, 0.5 mL of blood was obtained from the fossa orbitalis veniplex of rats at 5, 10, 20, 30, 45, 60, 120, 180 and 240 min. HPLC was used to determine the concentration of each compound in plasma and the DAS software was used for the noncompartmental pharmacokinetic analysis of the plasma concentration–time data. Sprague–Dawley male rats, 200–240 g, were housed in cages in an airconditioned room with light dark cycle of 12 h before the experiment started. […]
// values below are reported half-life
Number first, unit second: that is the form wanted.

- compound: "COc1ccc(/C=C/C(=O)/C=C/CCc2ccccc2)cc1OC [CU-19]"
  half-life: "2.25 h"
- compound: "COc1cc(/C=C/C(=O)CC(=O)/C=C/c2ccc(O)c(OC)c2)ccc1O [CU, curcumin, reference compound]"
  half-life: "0.412 h"

Query: Record request: half-life value, item COc1ccc(CC/C=C/C(=O)/C=C/c2ccccc2)cc1 [CU-21]
Reply: 2.72 h

---

// values below are reported viability at 24 h, 3 µM
Experiment: MTT cell viability assay in BV2 microglia cells
Type: cell-based
Conditions: mouse, 3 µM, mean ± SD, n = 3
Expressed in %, but write only the number.

- substanceSmiles: "O=C(/C=C/CCc1ccc(O)cc1)/C=C/c1ccccc1"
  viability at 24 h, 3 µM / %: 96.9

Query: Record request: viability at 24 h, 3 µM value, item COc1ccc(/C=C/C(=O)/C=C/CCc2ccc(OC)cc2)cc1
Reply: 97.4

Query: Record request: viability at 24 h, 3 µM value, item COc1cc(CC/C=C/C(=O)/C=C/c2ccc(O)cc2)ccc1O
Reply: 75.5

Query: Record request: viability at 24 h, 3 µM value, item Cc1ccc(CC/C=C/C(=O)/C=C/c2ccccc2)cc1
Reply: 88.8
